# studySystem: human recombinant cytochrome P450 3A4 (Homo sapiens)
# Sequence (P08684 whole entry): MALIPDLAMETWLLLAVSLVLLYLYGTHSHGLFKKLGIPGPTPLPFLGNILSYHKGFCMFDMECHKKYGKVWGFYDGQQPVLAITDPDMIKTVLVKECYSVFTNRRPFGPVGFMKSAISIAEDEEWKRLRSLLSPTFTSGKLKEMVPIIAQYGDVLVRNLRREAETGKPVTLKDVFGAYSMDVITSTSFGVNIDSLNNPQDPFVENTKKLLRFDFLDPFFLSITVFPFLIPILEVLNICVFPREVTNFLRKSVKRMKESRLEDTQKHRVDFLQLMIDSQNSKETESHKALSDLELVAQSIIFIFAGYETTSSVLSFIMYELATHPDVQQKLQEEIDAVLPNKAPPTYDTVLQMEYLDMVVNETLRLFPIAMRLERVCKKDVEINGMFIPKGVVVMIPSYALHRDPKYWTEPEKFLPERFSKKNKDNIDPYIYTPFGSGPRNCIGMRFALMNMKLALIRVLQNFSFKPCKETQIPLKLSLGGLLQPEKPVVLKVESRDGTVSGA
This section presents compounds with their documented pIC50 values.
Units for pIC50: none; it is -log10 of a concentration expressed in mol/L.

// solved cases for pIC50 follow
compound | testReadout | endpointValue
C[C@@H](c1ccc(-c2ccc(=O)n(C3CC3)c2)cc1)N1CC[C@](CC(C)(C)O)(c2ccccc2)OC1=O [Example 3] | pIC50 | 4.36
C[C@@H](c1ccc(-c2ccc(=O)n(CC(F)(F)F)c2)cc1)N1CC[C@](CC(C)(C)O)(c2ccccc2)OC1=O [Example 67] | pIC50 | 4.55
C[C@@H](c1ccc(-c2ccc(=O)n(C(F)F)c2)cc1)N1CC[C@](CC(C)(C)O)(c2ccccc2)OC1=O [Example 4] | pIC50 | 4.68
C[C@@H](c1ccc(-c2ccc(=O)n(C)c2)cc1)N1CC[C@](CC(C)(C)C#N)(c2ccc(F)cc2)OC1=O [Example 69] | pIC50 | 4.64
C[C@@H](c1ccc(-c2ccn(C)c(=O)c2)cc1)N1CC[C@](CC(C)(C)C#N)(c2ccccc2)OC1=O [Example 50] | pIC50 | 4.85

Turning now to a further compound:
Incoming: Form entry - test system: human recombinant cytochrome P450 3A4 (Homo sapiens); read-out: pIC50; compound: CCn1cc(-c2ccc([C@H](C)N3CC[C@](CC(C)(C)O)(c4ccc(F)cc4)OC3=O)cc2)ccc1=O [Example 62]
Outgoing: 4.32
